Attribute: combination Emax
Test system: BT-549 (Breast Carcinoma)
Assay: combination Emax (second highest fraction inhibited in the dose matrix, 72 h); higher = more inhibition; extreme values may be limits of the assay

compound	combination Emax
CN(CCO)CC[C@H](CSc1ccccc1)Nc1ccc(S(=O)(=O)NC(=O)c2ccc(N3CCC([C@@H](O)c4ccccc4-c4ccc(Cl)cc4)CC3)cc2)cc1S(=O)(=O)C(F)(F)F [AZD4320] + C=CCn1c(=O)c2cnc(Nc3ccc(N4CCN(C)CC4)cc3)nc2n1-c1cccc(C(C)(C)O)n1 [AZD1775] (first compound max 1 µM, partner max 1 µM)	0.751
NC1(C(=O)N[C@@H](CCO)c2ccc(Cl)cc2)CCN(c2ncnc3[nH]ccc23)CC1 [Capivasertib] + COc1nnc2ccc(N3CCC(c4ccc(OCCN5CCN(C)C(=O)[C@H]5C)cc4)CC3)nn12 [AZD5153] (first compound max 10 µM, 7x7, partner max 1 µM)	0.602
NC1(C(=O)N[C@@H](CCO)c2ccc(Cl)cc2)CCN(c2ncnc3[nH]ccc23)CC1 [Capivasertib] + Cn1cnc2c(F)c(Nc3ccc(Br)cc3Cl)c(C(=O)NOCCO)cc21 [Selumetinib] (first compound max 10 µM, 7x7, partner max 10 µM)	0.41

====

Attribute: Bliss excess
System: NCI-H727 (Other Solid Carcinomas);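 note: after 72 h of two-drug dosing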
Assay: Bliss excess, mean over the matrix (fraction); higher = more synergy

molecule	Bliss excess
CC1(C)CCC(CN2CCN(c3ccc(C(=O)NS(=O)(=O)c4ccc(NCC5CCOCC5)c([N+](=O)[O-])c4)c(Oc4cnc5[nH]ccc5c4)c3)CC2)=C(c2ccc(Cl)cc2)C1 [Venetoclax] + COc1cc(Nc2ncc3c(n2)-c2ccc(Cl)cc2C(c2c(F)cccc2OC)=NC3)ccc1C(=O)O [Alisertib] (first compound max 1 µM, 7x7, partner max 10 µM)	-0.0707
Cc1nc(-c2cn3c(n2)-c2ccc(-c4cnn(C(C)(C)C(N)=O)c4)cc2OCC3)n(C(C)C)n1 [Taselisib] + O=C(Nc1ccc2[nH]nc(-c3ccncc3)c2c1)[C@@H]1CCN(CC(=O)N2CCN(c3ccc(-c4ncccn4)cc3)CC2)C1 [SCH772984] (first compound max 10 µM, 7x7, partner max 5 µM)	0.0252
CN(CCO)CC[C@H](CSc1ccccc1)Nc1ccc(S(=O)(=O)NC(=O)c2ccc(N3CCC([C@@H](O)c4ccccc4-c4ccc(Cl)cc4)CC3)cc2)cc1S(=O)(=O)C(F)(F)F [AZD4320] + CN(C)CCCOc1ccc(-c2ccc3ncc4c(c3c2)n(C2CCOCC2)c(=O)n4C)cn1 [AZD0156] (first compound max 1 µM, 7x7, partner max 1 µM)	-0.0606

====

Attribute: combination Emax
Test system: ACHN (Kidney Carcinoma)
Assay: combination Emax (second highest fraction inhibited in the dose matrix, 72 h); higher = more inhibition; extreme values may be limits of the assay

compound	combination Emax
CC1(C)CCC(CN2CCN(c3ccc(C(=O)NS(=O)(=O)c4ccc(NCC5CCOCC5)c([N+](=O)[O-])c4)c(Oc4cnc5[nH]ccc5c4)c3)CC2)=C(c2ccc(Cl)cc2)C1 [Venetoclax] + CS(=O)(=O)CCNCc1ccc(-c2ccc3ncnc(Nc4ccc(OCc5cccc(F)c5)c(Cl)c4)c3c2)o1 [Lapatinib] (first compound max 1 µM, 7x7, partner max 10 µM)	0.52
CN(CCO)CC[C@H](CSc1ccccc1)Nc1ccc(S(=O)(=O)NC(=O)c2ccc(N3CCC([C@@H](O)c4ccccc4-c4ccc(Cl)cc4)CC3)cc2)cc1S(=O)(=O)C(F)(F)F [AZD4320] + CC(=O)O[C@H]1C(=O)[C@@]2(C)[C@H]([C@H](OC(=O)c3ccccc3)[C@]3(O)C[C@H](OC(=O)[C@H](O)[C@@H](NC(=O)c4ccccc4)c4ccccc4)C(C)=C1C3(C)C)[C@]1(OC(C)=O)CO[C@@H]1C[C@@H]2O [Paclitaxel] (first compound max 1 µM, 7x7, partner max 3 µM)	0.71
